What log10(IC50) was measured for each of the following?
Biological target: GST-YTHDC1 (345-509) protein (Homo sapiens)
Construct: GST-YTHDC1 (345-509) protein
Assay: Fluorescence polarization-based in vitro enzyme-level test against YTHDC1
Format: binding
Settings: 30 nM GST-YTHDC1 (345-509), FAM-labeled m6A-modified single-stranded oligonucleotide, 18° C., 4 hours; read-out: IC50 (Inhibitory Activity against YTHDC1)
# log10 transformed; quantity=IC50; unit=µM

Look over these answered cases.
| COMPOUND | READOUT NUMBER |
| --- | --- |
| CC1(C)CN(c2ccccc2C(=O)c2c[nH]c(C(=O)Nc3ccc(-c4cnco4)cc3)c2)CCO1 | -1.08 |
| CN1CCN(c2ccccc2C(=O)c2c[nH]c(C(=O)Nc3ccc(-c4cnco4)cc3)c2)CC1 | 0.02 |
| O=C(Nc1ccc(OC(F)(F)F)cc1)c1cc(C(=O)c2ccccc2C(F)(F)F)c[nH]1 | -1.38 |
| O=C(Nc1ccc(-c2cncs2)cc1)c1cc(C(=O)c2ccccc2C(F)(F)F)c[nH]1 | -2.15 |

// input: 2 molecules below; output: log10(IC50) for each
1. O=C(Nc1ccc(-c2cncs2)cc1)c1cc2c(-c3ccccc3N3CCOCC3)nccc2[nH]1
2. O=C(Nc1cccnc1)c1cc(C(=O)c2ccccc2Cl)c[nH]1

(A)
1: -0.03; 2: 0.45
